biological target: Cyclin-dependent kinase 9 (Homo sapiens)
Sequence (P50750 whole entry): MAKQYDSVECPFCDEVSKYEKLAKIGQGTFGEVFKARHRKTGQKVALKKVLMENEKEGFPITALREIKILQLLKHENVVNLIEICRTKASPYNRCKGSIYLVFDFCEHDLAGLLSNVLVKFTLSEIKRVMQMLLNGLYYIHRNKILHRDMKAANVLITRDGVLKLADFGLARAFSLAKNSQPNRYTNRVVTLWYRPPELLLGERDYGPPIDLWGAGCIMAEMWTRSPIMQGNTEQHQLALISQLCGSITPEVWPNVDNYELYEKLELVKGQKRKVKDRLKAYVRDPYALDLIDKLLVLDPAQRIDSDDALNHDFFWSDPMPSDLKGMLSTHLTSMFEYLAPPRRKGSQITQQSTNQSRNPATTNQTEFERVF
quantity: Kd

INPUT: # get_value(readout= Kd, system= Cyclin-dependent kinase 9 (Homo sapiens)) for `CC(C)CN(C(=O)c1cccnc1)c1c2ccccc2c(=O)n2c1[nH]c1ccccc12`
OUTPUT: ≥ 5 µM

====

target: NUAK family SNF1-like kinase 2 (Homo sapiens, UniProt Q9H093)
Sequence (Q9H093 whole entry): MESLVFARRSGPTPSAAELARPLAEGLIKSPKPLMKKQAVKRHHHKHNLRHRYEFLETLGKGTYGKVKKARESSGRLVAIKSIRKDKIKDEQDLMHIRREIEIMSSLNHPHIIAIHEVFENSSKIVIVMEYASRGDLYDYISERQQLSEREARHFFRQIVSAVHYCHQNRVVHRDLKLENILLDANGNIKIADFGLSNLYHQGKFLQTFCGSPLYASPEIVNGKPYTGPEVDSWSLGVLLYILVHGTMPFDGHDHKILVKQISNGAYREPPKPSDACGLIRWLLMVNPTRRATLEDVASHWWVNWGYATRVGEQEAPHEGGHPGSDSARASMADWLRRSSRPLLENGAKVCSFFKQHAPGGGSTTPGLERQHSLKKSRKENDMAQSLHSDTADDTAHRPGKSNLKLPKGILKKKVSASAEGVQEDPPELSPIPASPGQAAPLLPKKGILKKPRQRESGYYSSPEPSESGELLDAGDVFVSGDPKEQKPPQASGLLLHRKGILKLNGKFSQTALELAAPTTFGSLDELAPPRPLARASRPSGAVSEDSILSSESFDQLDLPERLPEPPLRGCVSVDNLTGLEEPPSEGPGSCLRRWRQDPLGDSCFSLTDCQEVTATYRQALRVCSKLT
quantity: Kd

INPUT: # get_value(readout= Kd, system= NUAK family SNF1-like kinase 2 (Homo sapiens, UniProt Q9H093)) for `CC(C)CN(C(=O)c1cccnc1)c1c2ccccc2c(=O)n2c1[nH]c1ccccc12`
OUTPUT: ≥ 5 µM

====

target: Insulin receptor (Homo sapiens)
quantity: Kd

INPUT: # get_value(readout= Kd, system= Insulin receptor (Homo sapiens)) for `CC(C)CN(C(=O)c1cccnc1)c1c2ccccc2c(=O)n2c1[nH]c1ccccc12`
OUTPUT: ≥ 5 µM

====

molecular target: Phosphatidylinositol 4-phosphate 3-kinase C2 domain-containing subunit beta (Homo sapiens, UniProt O00750); test: Binding affinity to human PIK3C2B (M1 to L1634 residues) expressed in mammalian expression system by KINOMEscan assay
Sequence (O00750 whole entry, the tested form may be a part): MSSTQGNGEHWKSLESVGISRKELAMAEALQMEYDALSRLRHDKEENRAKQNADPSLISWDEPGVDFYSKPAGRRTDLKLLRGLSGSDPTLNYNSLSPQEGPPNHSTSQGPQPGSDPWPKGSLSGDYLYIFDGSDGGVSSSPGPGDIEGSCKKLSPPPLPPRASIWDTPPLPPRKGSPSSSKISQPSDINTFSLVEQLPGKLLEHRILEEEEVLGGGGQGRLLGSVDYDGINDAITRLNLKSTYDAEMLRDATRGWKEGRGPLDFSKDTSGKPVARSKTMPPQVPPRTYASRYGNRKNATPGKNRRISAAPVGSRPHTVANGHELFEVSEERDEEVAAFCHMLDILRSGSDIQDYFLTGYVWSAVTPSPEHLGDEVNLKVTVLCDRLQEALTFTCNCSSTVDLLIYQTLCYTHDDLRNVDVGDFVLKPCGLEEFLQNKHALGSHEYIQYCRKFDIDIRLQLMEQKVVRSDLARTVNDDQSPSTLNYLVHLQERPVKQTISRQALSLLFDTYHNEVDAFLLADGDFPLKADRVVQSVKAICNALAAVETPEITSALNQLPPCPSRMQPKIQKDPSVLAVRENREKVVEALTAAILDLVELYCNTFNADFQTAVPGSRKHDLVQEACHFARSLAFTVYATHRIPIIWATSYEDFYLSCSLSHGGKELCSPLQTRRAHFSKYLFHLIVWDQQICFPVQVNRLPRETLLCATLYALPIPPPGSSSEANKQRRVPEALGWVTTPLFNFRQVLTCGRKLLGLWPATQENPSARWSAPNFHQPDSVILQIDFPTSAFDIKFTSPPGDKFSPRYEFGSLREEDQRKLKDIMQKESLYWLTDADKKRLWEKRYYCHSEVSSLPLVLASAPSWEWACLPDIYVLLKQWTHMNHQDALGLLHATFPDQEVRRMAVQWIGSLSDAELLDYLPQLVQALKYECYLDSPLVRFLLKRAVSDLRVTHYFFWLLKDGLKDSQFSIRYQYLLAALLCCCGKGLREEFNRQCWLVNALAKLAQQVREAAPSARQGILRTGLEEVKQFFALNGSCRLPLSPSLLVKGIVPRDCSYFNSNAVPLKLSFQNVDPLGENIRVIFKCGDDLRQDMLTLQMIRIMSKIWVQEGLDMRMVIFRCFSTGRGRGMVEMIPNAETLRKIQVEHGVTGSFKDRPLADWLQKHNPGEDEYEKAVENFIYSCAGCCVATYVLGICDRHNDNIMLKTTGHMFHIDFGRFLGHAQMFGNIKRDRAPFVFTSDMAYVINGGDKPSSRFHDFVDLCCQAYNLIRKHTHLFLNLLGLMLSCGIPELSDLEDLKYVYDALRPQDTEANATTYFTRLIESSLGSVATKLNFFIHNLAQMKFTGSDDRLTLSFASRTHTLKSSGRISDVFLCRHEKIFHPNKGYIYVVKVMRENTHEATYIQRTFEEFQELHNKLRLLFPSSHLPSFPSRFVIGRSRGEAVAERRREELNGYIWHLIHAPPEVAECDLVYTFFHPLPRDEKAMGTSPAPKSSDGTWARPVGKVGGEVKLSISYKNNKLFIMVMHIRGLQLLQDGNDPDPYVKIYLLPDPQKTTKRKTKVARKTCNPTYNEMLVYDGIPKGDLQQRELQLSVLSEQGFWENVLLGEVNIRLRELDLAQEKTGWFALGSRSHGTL
quantity: Kd

INPUT: Quick one: Kd of `CC(C)CN(C(=O)c1cccnc1)c1c2ccccc2c(=O)n2c1[nH]c1ccccc12` ?
OUTPUT: ≥ 5 µM

====

target: Serine/threonine-protein kinase RIO2 (Homo sapiens, UniProt Q9BVS4)
Sequence (Q9BVS4 whole entry): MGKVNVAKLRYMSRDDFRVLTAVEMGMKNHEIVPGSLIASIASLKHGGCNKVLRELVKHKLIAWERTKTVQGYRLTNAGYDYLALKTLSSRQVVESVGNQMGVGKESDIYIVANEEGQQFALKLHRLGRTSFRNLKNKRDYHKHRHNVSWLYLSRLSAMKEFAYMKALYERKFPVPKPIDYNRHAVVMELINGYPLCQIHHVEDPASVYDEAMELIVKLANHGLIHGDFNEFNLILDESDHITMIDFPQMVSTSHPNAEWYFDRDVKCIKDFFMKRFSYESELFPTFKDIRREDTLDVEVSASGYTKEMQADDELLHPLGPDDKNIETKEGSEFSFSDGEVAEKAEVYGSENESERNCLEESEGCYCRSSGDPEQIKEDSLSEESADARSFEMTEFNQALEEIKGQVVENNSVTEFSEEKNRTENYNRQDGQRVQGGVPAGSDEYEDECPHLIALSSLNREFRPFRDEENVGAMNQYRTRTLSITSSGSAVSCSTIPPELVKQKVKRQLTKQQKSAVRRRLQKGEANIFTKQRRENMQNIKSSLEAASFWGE
pKd: −log10 of the molar value.
quantity: pKd

INPUT: # get_value(readout= pKd, system= Serine/threonine-protein kinase RIO2 (Homo sapiens, UniProt Q9BVS4)) for `CC(C)CN(C(=O)c1cccnc1)c1c2ccccc2c(=O)n2c1[nH]c1ccccc12`
OUTPUT: ≤ 5.30

====

Molecular target: Serine/threonine-protein kinase STK11 (Homo sapiens, UniProt Q15831)
Sequence (Q15831 whole entry): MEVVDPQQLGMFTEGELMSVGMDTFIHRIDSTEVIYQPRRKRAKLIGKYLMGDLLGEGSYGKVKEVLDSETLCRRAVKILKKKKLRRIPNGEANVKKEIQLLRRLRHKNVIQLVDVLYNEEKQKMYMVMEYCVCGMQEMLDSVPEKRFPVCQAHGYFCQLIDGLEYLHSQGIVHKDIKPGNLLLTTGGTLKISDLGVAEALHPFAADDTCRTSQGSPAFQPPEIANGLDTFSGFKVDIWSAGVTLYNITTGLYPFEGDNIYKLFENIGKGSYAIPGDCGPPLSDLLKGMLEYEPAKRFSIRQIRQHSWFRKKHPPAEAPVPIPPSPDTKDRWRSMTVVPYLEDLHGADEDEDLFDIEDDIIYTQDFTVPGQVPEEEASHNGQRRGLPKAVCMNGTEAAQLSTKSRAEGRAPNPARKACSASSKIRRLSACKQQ
pKd: −log10 of the molar value.
quantity: pKd

INPUT: Quick one: pKd of `CC(C)CN(C(=O)c1cccnc1)c1c2ccccc2c(=O)n2c1[nH]c1ccccc12` ?
OUTPUT: ≤ 5.30

====

molecular target: Cyclin-dependent kinase 3 (Homo sapiens)
Sequence (Q00526 whole entry): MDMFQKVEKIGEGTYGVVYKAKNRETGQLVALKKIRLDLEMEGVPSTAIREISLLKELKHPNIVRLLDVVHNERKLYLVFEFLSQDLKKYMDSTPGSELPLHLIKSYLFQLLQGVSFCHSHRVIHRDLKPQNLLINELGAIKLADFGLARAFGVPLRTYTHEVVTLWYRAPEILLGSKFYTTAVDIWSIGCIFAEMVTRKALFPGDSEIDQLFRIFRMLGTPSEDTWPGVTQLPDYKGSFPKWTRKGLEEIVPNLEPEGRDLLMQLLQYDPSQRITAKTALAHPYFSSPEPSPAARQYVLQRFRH
pKd: −log10 of the molar value.
quantity: pKd

INPUT: Quick one: pKd of `CC(C)CN(C(=O)c1cccnc1)c1c2ccccc2c(=O)n2c1[nH]c1ccccc12` ?
OUTPUT: ≤ 5.30

====

molecular target: Ribosomal protein S6 kinase alpha-3 (Homo sapiens)
Sequence (P51812 whole entry): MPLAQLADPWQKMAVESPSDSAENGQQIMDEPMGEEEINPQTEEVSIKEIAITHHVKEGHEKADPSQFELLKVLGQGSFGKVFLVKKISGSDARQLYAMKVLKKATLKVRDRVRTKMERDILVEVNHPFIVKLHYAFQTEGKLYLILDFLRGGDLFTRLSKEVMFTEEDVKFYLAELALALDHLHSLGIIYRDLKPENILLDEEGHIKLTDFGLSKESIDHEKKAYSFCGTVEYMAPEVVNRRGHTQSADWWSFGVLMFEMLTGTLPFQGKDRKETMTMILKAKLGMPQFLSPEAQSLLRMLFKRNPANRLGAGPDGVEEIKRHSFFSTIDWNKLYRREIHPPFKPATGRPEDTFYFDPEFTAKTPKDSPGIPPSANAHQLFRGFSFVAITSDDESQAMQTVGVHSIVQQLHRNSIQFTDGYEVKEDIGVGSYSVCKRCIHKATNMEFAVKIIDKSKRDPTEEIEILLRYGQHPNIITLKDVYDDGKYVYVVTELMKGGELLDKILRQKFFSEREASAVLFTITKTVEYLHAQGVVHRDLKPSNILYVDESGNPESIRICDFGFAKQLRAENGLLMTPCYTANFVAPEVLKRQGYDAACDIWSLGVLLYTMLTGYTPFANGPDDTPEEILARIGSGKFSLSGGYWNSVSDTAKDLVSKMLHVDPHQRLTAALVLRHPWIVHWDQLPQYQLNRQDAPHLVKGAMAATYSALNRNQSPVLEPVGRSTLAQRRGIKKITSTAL
pKd: −log10 of the molar value.
quantity: pKd

INPUT: # get_value(readout= pKd, system= Ribosomal protein S6 kinase alpha-3 (Homo sapiens)) for `CC(C)CN(C(=O)c1cccnc1)c1c2ccccc2c(=O)n2c1[nH]c1ccccc12`
OUTPUT: ≤ 5.30
